# SYSTEM NAME: A3 AR (Homo sapiens)
# Sequence (P0DMS8 whole entry): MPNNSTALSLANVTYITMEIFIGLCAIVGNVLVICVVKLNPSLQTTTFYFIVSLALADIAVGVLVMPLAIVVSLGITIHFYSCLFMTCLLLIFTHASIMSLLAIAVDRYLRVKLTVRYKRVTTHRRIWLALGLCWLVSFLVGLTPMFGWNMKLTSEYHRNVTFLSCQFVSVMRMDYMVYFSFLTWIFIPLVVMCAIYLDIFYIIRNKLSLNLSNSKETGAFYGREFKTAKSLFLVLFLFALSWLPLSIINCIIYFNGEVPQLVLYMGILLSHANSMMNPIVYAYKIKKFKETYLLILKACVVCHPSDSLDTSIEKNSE
# EXPERIMENT DESCRIPTION: Radioligand competition binding (125I-ABA) to human A3 AR in HEK 293 cell membranes
# EXPERIMENTAL CONDITIONS: A3 ± SEM, Ki from competition binding, 125I-ABA, HEK 293 cell membranes
PARAMETER MEASURED: pKi
Quick note: pKi means taking -log10 of the concentration in moles per liter.

Study these solved cases before continuing.
MOLECULE: CCNC(=O)[C@H]1O[C@@H](n2cnc3c(N)nc(C#C[C@]4(O)CCC[C@@H](C)C4)nc32)C(O)C1O (stereo in doubt)
QUANTITATIVE READOUT: 9.15

MOLECULE: CCNC(=O)[C@H]1O[C@@H](n2cnc3c(N)nc(C#CCC4CCC(C)(C(=O)OC)CC4)nc32)C(O)C1O (single isomer, unassigned) [JR-3067B]
QUANTITATIVE READOUT: 6.67

MOLECULE: CCNC(=O)[C@H]1O[C@@H](n2cnc3c(N)nc(C#CCC4CCC(C(=O)NC)CC4)nc32)C(O)C1O (stereo in doubt)
QUANTITATIVE READOUT: 7.55

MOLECULE: CCNC(=O)[C@H]1O[C@@H](n2cnc3c(N)nc(C#CCC4CCN(C(=O)OCC(C)C)CC4)nc32)C(O)C1O (stereo in doubt)
QUANTITATIVE READOUT: 7.14

MOLECULE: CCNC(=O)[C@H]1O[C@@H](n2cnc3c(N)nc(C#CCC4CCC(C(N)=O)CC4)nc32)C(O)C1O (stereo in doubt)
QUANTITATIVE READOUT: 7.55

Now consider the entry below.
(Q) Look up pKi for this molecule: CCNC(=O)[C@H]1O[C@@H](n2cnc3c(N)nc(C#CC4(O)CCCC4)nc32)C(O)C1O (stereo in doubt)
(A) 8.46

* * *

# SYSTEM NAME: recombinant human A2A receptors (Homo sapiens, UniProt P29274)
# Sequence (P29274 whole entry): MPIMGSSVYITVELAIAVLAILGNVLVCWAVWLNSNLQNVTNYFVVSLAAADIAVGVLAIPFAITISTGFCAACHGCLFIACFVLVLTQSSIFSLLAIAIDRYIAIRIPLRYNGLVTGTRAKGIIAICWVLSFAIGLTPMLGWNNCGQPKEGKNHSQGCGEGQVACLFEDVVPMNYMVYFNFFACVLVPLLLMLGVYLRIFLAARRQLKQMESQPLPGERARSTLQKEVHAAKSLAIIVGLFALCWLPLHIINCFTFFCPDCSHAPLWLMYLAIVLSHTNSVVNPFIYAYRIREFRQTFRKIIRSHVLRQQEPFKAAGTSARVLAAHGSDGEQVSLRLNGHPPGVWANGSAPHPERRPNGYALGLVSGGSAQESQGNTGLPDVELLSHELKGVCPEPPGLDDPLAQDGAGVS
# EXPERIMENT DESCRIPTION: Radioligand competition binding to recombinant human A2A receptors in Sf9 cell membranes
# EXPERIMENTAL CONDITIONS: A2A ± SEM
PARAMETER MEASURED: Ki (nM)
Return type: number; implicit unit nM.

(Q) Look up Ki for this molecule: OC[C@H]1O[C@@H](n2cnc3c(NC4CCCC4)ncnc32)[C@H](O)[C@@H]1O [CPA, N^6-cyclopentyladenosine, reference compound]
(A) 19.8

* * *

# SYSTEM NAME: recombinant human A2A receptors (Homo sapiens)
# EXPERIMENT DESCRIPTION: Radioligand competition binding to recombinant human A2A receptors in Sf9 cell membranes
# EXPERIMENTAL CONDITIONS: A2A ± SEM, Ki from competition binding, Sf9 cell membranes
As shown below, each of these compounds has a reported pKi value.
Quick note: pKi means taking -log10 of the concentration in moles per liter.

COMPOUND: CCNC(=O)[C@H]1O[C@@H](n2cnc3c(N)nc(C#CCC4CCN(C(=O)OC)CC4)nc32)C(O)C1O (stereo in doubt) [JR-4007]
SYSTEM NAME: recombinant human A2A receptors (Homo sapiens)
PARAMETER MEASURED: pKi
QUANTITATIVE READOUT: 9.01

(Q) Look up pKi for this compound: CCNC(=O)[C@H]1O[C@@H](n2cnc3c(N)nc(C#CCC4CCN(C(=O)OCC)CC4)nc32)C(O)C1O (stereo in doubt) [JR-3269]
(A) 8.90

(Q) Query CCNC(=O)[C@H]1O[C@@H](n2cnc3c(N)nc(C#CC[C@H]4CC[C@H](COC(=O)OCC(C)C)CC4)nc32)C(O)C1O (stereo partly drawn) [ATL215] next
(A) 8.32

# credit: patent US7737127B2
